Tested on: UACC-62 melanoma
Assay: NCI tumour cell line growth inhibition, 48 h
The following compounds are listed with their measured TGI values.
Output spec: scalar in µM, unitless text.

Study these solved cases before continuing.
[
  {
    "COMPOUND": "N#Cc1c(-c2ccccc2)nc2c(c(-c3ccccc3)nn2-c2ccccc2)c1-c1ccc(O)cc1",
    "SYSTEM_UNDER_TEST": "UACC-62 melanoma",
    "TGI / µM": 3.18
  },
  {
    "COMPOUND": "Cc1ccc(-n2cc(-c3ccc(Cl)cc3)c3c2N=CN2NC(c4ccco4)=NC32)cc1 (stereo not given)",
    "SYSTEM_UNDER_TEST": "UACC-62 melanoma",
    "TGI / µM": 31.5
  },
  {
    "COMPOUND": "c1ccc2c(c1)N=C(c1cccc3ccccc13)CC(c1cccc3ccccc13)S2 (stereo not given)",
    "SYSTEM_UNDER_TEST": "UACC-62 melanoma",
    "TGI / µM": 19.8
  },
  {
    "COMPOUND": "N#CC(C#N)=Cc1cccc(Oc2ccccc2)c1",
    "SYSTEM_UNDER_TEST": "UACC-62 melanoma",
    "TGI / µM": 53.3
  }
]

Q. What TGI value was documented for this compound, O=C(/C=C1\C[C@H]2C=Nc3ccccc3C(=O)N2C1)NCCCCCNC(=O)/C=C1\C[C@H]2C=Nc3ccccc3C(=O)N2C1 ?
A. 28.8

Q. What TGI value was documented for this compound, Cc1ccc2c(c1)C(=O)/C(=C\c1ccc(Cl)cc1)CCS2(=O)=O ?
A. 10.2
